# Test system: Saccharomyces cerevisiae
# Run description: Inhibition of Saccharomyces cerevisiae alpha-glucosidase at 100 uM using PNPG as substrate preincubated for 10 mins followed by substrate addition measured after 30 mins relative to control
# Assay conditions: time 40.0 min
Measured endpoint: inhibition (%)

The cases that follow already have their inhibition on record.
# Substance smiles, Unit tag, inhibition
records = [
    ("O=C(/C=C/c1ccc(Cl)cc1)Oc1ccc2ccc(=O)oc2c1", "%", 29.9),
    ("O=C(/C=C/c1ccc(C(F)(F)F)cc1)Oc1ccc2ccc(=O)oc2c1", "%", 38.2),
    ("O=C(/C=C/c1ccc(C(F)(F)F)cc1)Oc1cc(=O)oc2ccccc12", "%", 41.9),
    ("O=C(/C=C/c1ccc(Cl)cc1)Oc1cc(=O)oc2ccccc12", "%", 33.1),
    ("COc1cc(/C=C/C(=O)Oc2cc(=O)oc3ccccc23)ccc1O", "%", 19.5),
    ("Cc1ccc(/C=C/C(=O)Oc2cc(=O)oc3ccccc23)cc1", "%", 89.9),
    ("O=C(/C=C/c1ccc(F)cc1)Oc1cc(=O)oc2ccccc12", "%", 68.5),
    ("O=C(/C=C/c1ccc(Br)cc1)Oc1cc(=O)oc2ccccc12", "%", 61),
    ("O=C(/C=C/c1ccccc1)Oc1ccc2ccc(=O)oc2c1", "%", 45.6),
]

1. O=C(/C=C/c1ccc(O)cc1)Oc1ccc2ccc(=O)oc2c1
2. COc1ccc(/C=C/C(=O)Oc2ccc3ccc(=O)oc3c2)cc1
Response body: label of entry with the larger inhibition; valid values 1 , 2 . Answer = label.
2

* * *

# Tested on: Saccharomyces cerevisiae
# Run description: Inhibition of Saccharomyces cerevisiae alpha-glucosidase at 100 uM using PNPG as substrate preincubated for 10 mins followed by substrate addition measured after 30 mins relative to control
# Assay conditions: time 40.0 min
Measured endpoint: inhibition (%)

# Substance smiles, Measured endpoint, Unit tag, Experimental value
rows = [
    ("O=C(/C=C/c1ccccc1)Oc1cc(=O)oc2ccccc12", "inhibition", "%", 83.5),
]

P. Cc1ccc(/C=C/C(=O)Oc2ccc3ccc(=O)oc3c2)cc1
Q. COc1cc(/C=C/C(=O)Oc2ccc3ccc(=O)oc3c2)ccc1O
R. O=C(/C=C/c1ccc(Br)cc1)Oc1ccc2ccc(=O)oc2c1
Give the ascending ranking of the items by reported inhibition. Could you list the labels in the order requested?
Q, R, P

A. COc1ccc(/C=C/C(=O)Oc2cc(=O)oc3ccccc23)cc1
B. O=C(/C=C/c1ccc(O)cc1)Oc1cc(=O)oc2ccccc12
Response body: label of entry with the larger inhibition; valid values A , B . Answer = label.
A

* * *

# Run description: Inhibition of Saccharomyces cerevisiae alpha-glucosidase using PNPG as substrate preincubated for 10 mins followed by substrate addition measured after 30 mins
pIC50: −log10 of the molar value.
Measured endpoint: pIC50

The cases that follow already have their pIC50 on record.
# Substance smiles, Experimental value
records = [
    ("Cc1ccc(/C=C/C(=O)Oc2ccc3ccc(=O)oc3c2)cc1", 4.02),
    ("O=C(O)/C=C/c1ccccc1", 1.82),
    ("O=C(/C=C/c1ccccc1)Oc1cc(=O)oc2ccccc12", 4.71),
    ("Cc1ccc(/C=C/C(=O)Oc2cc(=O)oc3ccccc23)cc1", 4.89),
]

a. C[C@H]1[C@H](C)CC[C@]2(C(=O)O)CC[C@]3(C)C(=CC[C@@H]4[C@@]5(C)CC[C@H](O)C(C)(C)[C@@H]5CC[C@]43C)[C@H]12
b. O=C(/C=C/c1ccc(Br)cc1)Oc1cc(=O)oc2ccccc12
Of a and b , whose reported pIC50 is numerically smaller? Answer = label.
b
(b: 4.16, a: 4.94)

A. COc1ccc(/C=C/C(=O)Oc2cc(=O)oc3ccccc23)cc1
B. O=c1ccc2ccc(O)cc2o1
Response body: label of entry with the larger pIC50; valid values A , B . Answer = label.
A
(A: 4.43, B: 2.05)

Every entry's value here was drawn from ChEMBL document CHEMBL4680172.
